Each item that follows carries a reported GI50.
System: NCI-H522 lung
Experiment: NCI tumour cell line growth inhibition, 48 h
observedProperty: GI50

compound	observed
CC(C)=CCC[C@](C)(O)[C@H]1CC[C@]2(C)[C@@H]1CC[C@@H]1[C@@]3(C)CC[C@H](OC(=O)CCC(=O)O)C(C)(C)[C@@H]3CC[C@]12C	26200 nM
CN1C=CN(Cc2ccc(-c3ccccn3)nc2)[CH-]1.CN1C=CN(Cc2ccc(-c3ccccn3)nc2)[CH-]1.[Au+3]	104 nM
COc1cc(SC)ccc1C(=O)N1CCCC(C)C1 (stereo not drawn)	> 100000 nM
COc1cc(Nc2ncc(-c3ccccc3)o2)cc(OC)c1OC	925 nM
CCN(CC)c1ccc(/C=N\NC(=O)c2cccc(Nc3ccnc(C(F)(F)F)c3)c2)c(O)c1	393 nM
ClCc1ccc(Cn2cnc3ncnc(Cl)c32)cc1	4300 nM
C[C@@H]1CC[C@H]2C(CN3CCN(CC4=C(C(F)(F)F)O[C@@H]5O[C@@]6(C)CC[C@H]7[C@H](C)CC[C@@H]4[C@@]57OO6)CC3)=C(C(F)(F)F)O[C@@H]3O[C@@]4(C)CC[C@@H]1[C@]32OO4	2780 nM
CC1=CC(=O)c2[nH]c3ccccc3c2C1=O	3820 nM

---

TGI values for the compounds below.
Test system: SF-268 CNS
Experiment: NCI tumour cell line growth inhibition, 48 h
observedProperty: TGI

compound	observedProperty	observed
N#CC(/C(=N\NC(N)=S)C(=O)NC1C2CC3CC(C2)CC1C3)c1ccc(Cl)cc1 (stereo not given)	TGI	> 100 µM
COCCOC(=O)CCn1cc(F)c(=O)[nH]c1=O	TGI	> 150 µg/mL
CC(=O)Oc1ccc(-c2c(OC(C)=O)c(OC(C)=O)c(-c3ccc(OC(C)=O)c(OC(C)=O)c3)c(OC(C)=O)c2OC(C)=O)cc1	TGI	32.8 µM
O=C(n1c(=O)n(-c2ccc([N+](=O)[O-])cc2)c(=O)n1C(=O)C(Cl)(Cl)Cl)C(Cl)(Cl)Cl	TGI	> 100 µM
CCCC/C(C)=N/NC(N)=S	TGI	> 100 µM

---

Tested on: MALME-3M melanoma
Experiment: NCI tumour cell line growth inhibition, 48 h
Overview of reported TGI across a group of compounds:
observedProperty: TGI

compound	targetOrTestSystem	observed
Cn1c(=O)c2[nH]cnc2n(C)c1=O	MALME-3M melanoma	> 100 µM
NC(=NC1C2CC3CC(C2)CC1C3)Nc1ccc(I)cc1 (stereo unspecified)	MALME-3M melanoma	5.36 µM
C[Si](C)(C)[C@@]1([Se]c2ccccc2)CC[C@@H]1C(=O)c1ccccc1	MALME-3M melanoma	> 100 µM
O=C(O)CCN1C(=O)/C(=C/C(Cl)=C/c2ccccc2)SC1=S	MALME-3M melanoma	5.23 µM
NC(=S)NS(=O)(=O)c1ccc(Cl)cc1Cl	MALME-3M melanoma	> 100 µM
COc1cccc(C2c3cc4c(cc3OC(N3CCOCC3)C2C)OCO4)c1 (stereo unspecified)	MALME-3M melanoma	> 100 µM
CN(C)/C(=N/C(=O)Nc1ccccc1)SCc1ccccc1	MALME-3M melanoma	> 100 µM
CCCCCCCCCCCOCCC1C(C(C)OCCN2CCCC2)OC2OC(C)(C)OC21 (stereo unspecified)	MALME-3M melanoma	3.08 µM
Cc1nc(Nc2ccc([N+](=O)[O-])cc2)sc1C(=O)/C=C/c1ccc(N(C)C)cc1	MALME-3M melanoma	> 100 µM
O=C(n1c(=O)n(-c2ccc([N+](=O)[O-])cc2)c(=O)n1C(=O)C(Cl)(Cl)Cl)C(Cl)(Cl)Cl	MALME-3M melanoma	> 100 µM
OCC(CO)CC1COc2ccccc2O1 (stereo unspecified)	MALME-3M melanoma	> 10 µM
C/C(=N\n1c(N)c(C#N)c(-c2ccc(Cl)cc2)c(C#N)c1=O)c1cccnc1	MALME-3M melanoma	> 100 µM
COCCOCCOCCOCCOc1ccc2c(c1)C(=O)c1nc3ncccc3c(=O)n1-2	MALME-3M melanoma	0.339 µM
C=C1C[C@]23CC[C@@H]4C(CO)(CO)CC(=O)C[C@]4(C)[C@@H]2C(O)C[C@H]1C3 (stereo partly specified)	MALME-3M melanoma	> 100 µM
N#CC(C#N)=C/C=C/c1cccc([N+](=O)[O-])c1	MALME-3M melanoma	8.87 µM
c1csc(-c2csc(-c3cccs3)c2)c1	MALME-3M melanoma	> 100 µM
COc1cc(C(=O)c2c(-c3ccccc3)oc3ccccc23)cc(OC)c1O	MALME-3M melanoma	20.5 µM
N#CC(/C(=N\NC(N)=S)C(=O)NC1C2CC3CC(C2)CC1C3)c1ccc(Cl)cc1 (stereo unspecified)	MALME-3M melanoma	> 100 µM
CC(=O)Oc1ccc(-c2c(OC(C)=O)c(OC(C)=O)c(-c3ccc(OC(C)=O)c(OC(C)=O)c3)c(OC(C)=O)c2OC(C)=O)cc1	MALME-3M melanoma	30.3 µM
CCCNC(=O)Cn1c(-c2ccccc2)cc2ccccc21	MALME-3M melanoma	> 100 µM
COc1ccc2c3c([nH]c2c1)[C@H]1C[C@H]2[C@H](C[C@@H](O)[C@H](OC)[C@H]2C(=O)O)CN1CC3	MALME-3M melanoma	> 100 µM
